assay_name: Octanol-water partition coefficient, log P of the compound by reversed phase liquid chromatography
Format: physicochemical
reported_metric: logP

(I) CCN(CC)C(=O)C1(C)Sc2ccccc2-c2c1c1ccccc1n2CCF (racemic)
(II) CCN(CC)C(=O)C1Sc2cc(O)ccc2-c2c1c1ccccc1n2CCF (racemic)
Problem: Select one: I or II . Criterion: greater recorded logP. Answer by quoting the chosen item's label.
Solution: I

* * *

assay_name: Octanol-water partition coefficient, log P of the compound by reversed phase liquid chromatography
Format: physicochemical
reported_metric: logP

compound="CCN(CC)C(=O)C1Sc2c(OC)cccc2-c2c1c1ccccc1n2CCF (racemic)" reported_metric=logP number=3.67
compound="CCN(CC)C(=O)C1Sc2ccccc2-c2c1c1ccc(OC)nc1n2CCF (racemic)" reported_metric=logP number=3.87
compound="CCN(CC)C(=O)C1Sc2ccccc2-c2c1c1cccc(OC)c1n2CCF (racemic)" reported_metric=logP number=3.85
compound="CCN(CC)C(=O)C1Sc2ccccc2-c2c1c1cccnc1n2CCF (racemic)" reported_metric=logP number=3.12
